Tested on: Wolbachia pipientis
measurementDescription: Anti-Wolbachia Cell-Based Screen
Format: functional
Design: scale not given: in the data most compounds retested in dose-response had high values
particulars: 5 µM
In all, about 48,000 compounds went through this assay and about 13,000 (27%) showed an effect of 50% or more. This is one part of the list.
readout: Percent Effect (%)
Kindly provide the numeric value in % only, without the unit symbol.

Below, each entry is followed by its recorded Percent Effect result.
molecule: CN1CCN(C(=O)C2CC=CC2)c2ccccc21
resultUnit: %
Percent Effect: -33.89
--
molecule: CCC[C@@H]1CN(Cc2cc(OC)c3c(c2)OCO3)C[C@H]1C(=O)O
resultUnit: %
Percent Effect: 0.814
--
molecule: O=C(NC[C@]1(O)CN(Cc2ccccc2F)C[C@H]1O)c1cscn1
resultUnit: %
Percent Effect: 81.64
--
molecule: O=C(c1ccco1)N1C[C@H]2CCCN(C(=O)c3ccsc3)[C@H]2C1
resultUnit: %
Percent Effect: -8.905
--
molecule: COc1cc(CC2CC(c3ccc4c(c3)OCO4)=NO2)cc2c1OCO2 (stereo not drawn)
resultUnit: %
Percent Effect: 92.75
--
molecule: COc1cc(CCO)c(OC)c2c1OCO2
resultUnit: %
Percent Effect: -4.361
--
molecule: CC(C)CCNc1nnc(C(C)C)s1
resultUnit: %
Percent Effect: -2.433
--
molecule: O=C(CCc1ccccc1)C1CCCN(Cc2cncn2C2CC2)C1 (stereo not drawn)
resultUnit: %
Percent Effect: -3.844
--
molecule: O=C(O)C(F)(F)F.c1c2c(nn1CC1CC1)C(CNC1CCOCC1)OCC2 (stereo not drawn)
resultUnit: %
Percent Effect: 5.412
--
molecule: Cc1noc(CCCC(=O)NC(C)c2cccnc2)n1 (stereo not drawn)
resultUnit: %
Percent Effect: -10.11

Data request: Requested read-out: Percent Effect. Entry: COC(=O)C1=NOC(Cc2cc(OC)c3c(c2)OCO3)C1 (stereo not drawn)
Data returned: 94.65

Data request: Now the same for O=C(NC1CC1)N1C[C@@H]2CCN(C(=O)c3cscn3)[C@@H]2C1
Data returned: 121.3
